Listing of recorded CC50 at 4 days by entry.
Assay: Compound cytotoxicity, XTT-based colorimetric assay
Type: cell-based
Settings: human
Protocol: Compound cytotoxicity and the corresponding CC50 values were determined using the same protocol as described in the antiviral assay except that uninfected cells were used. Cytotoxicity was assessed on day 4 in uninfected MT2 cells by using an XTT (2,3-bis[2-Methoxy-4-nitro-5-sulfophenyl]-2H-tetrazolium-5-carboxyanilide inner salt)-based colorimetric assay (Sigma-Aldrich, St Louis, Mo).

A selection of reference data follows.
// query Please supply the value of reported CC50 at 4 days for the item Cc1cc(C2CCC(F)(F)CC2)nc2nc([C@H](Cc3cc(F)cc(F)c3)NC(=O)Cn3nc(C4CC4)c4c3C[C@@H]3C[C@H]43)n(-c3ccc(Cl)c4c(NS(C)(=O)=O)nn(CCN5[C@@H]6CC[C@H]5COC6)c34)c(=O)c12 (atropisomer, axis not shown; (P))
// result > 50 nM

// query Please supply the value of reported CC50 at 4 days for the item CS(=O)(=O)Nc1nn(CCN2[C@@H]3CC[C@H]2COC3)c2c(-n3c([C@H](Cc4cc(F)cc(F)c4)NC(=O)Cn4nc(C5CC5)c5c4C[C@@H]4C[C@H]54)nc4nc(C5CCC(F)(F)CC5)cc(C(F)F)c4c3=O)ccc(Cl)c12 (atropisomer, axis not shown; (P))
// result > 50 nM

// query Please supply the value of reported CC50 at 4 days for the item Cc1cc(C2(F)CCC(F)(F)CC2)nc2nc([C@H](Cc3cc(F)cc(F)c3)NC(=O)Cn3nc(C4CC4)c4c3C[C@@H]3C[C@H]43)n(-c3ccc(Cl)c4c(NS(C)(=O)=O)nn(CCN5CC6CC(C5)O6)c34)c(=O)c12
// result > 20 nM

// query Please supply the value of reported CC50 at 4 days for the item COCCNc1cc(C2CCC(F)(F)CC2)nc2nc([C@H](Cc3cc(F)cc(F)c3)NC(=O)Cn3nc(C(F)F)c4c3C(F)(F)[C@@H]3C[C@H]43)n(-c3ccc(Cl)c4c(NS(C)(=O)=O)nn(CCN5C[C@H]6C[C@@H](C5)O6)c34)c(=O)c12 (atropisomer, axis not shown; (P))
// result > 20 nM

// query Please supply the value of reported CC50 at 4 days for the item Cc1cc(C2CCC(F)(F)CC2)nc2nc([C@H](Cc3cc(F)cc(F)c3)NC(=O)Cn3nc(C4CC4)c4c3C[C@@H]3C[C@H]43)n(-c3ccc(Cl)c4c(NS(C)(=O)=O)nn(CCN5C[C@H]6C[C@@H](C5)O6)c34)c(=O)c12 (atropisomer, axis not shown; (P))
// result > 50 nM

// query Please supply the value of reported CC50 at 4 days for the item Cc1cc(C2(F)CCC(F)(F)CC2)nc2nc([C@H](Cc3cc(F)cc(F)c3)NC(=O)Cn3nc(C(F)F)c4c3C(F)(F)[C@@H]3C[C@H]43)n(-c3ccc(Cl)c4c(NS(C)(=O)=O)nn(CCN5[C@@H]6CC[C@H]5COC6)c34)c(=O)c12 (atropisomer, axis not shown; (P))
// result > 20 nM

From here, focus on the item given below.
// query Please supply the value of reported CC50 at 4 days for the item Cc1cc(C2CCC(F)(F)CC2)nc2nc([C@H](Cc3cc(F)cc(F)c3)NC(=O)Cn3nc(C4CC4)c4c3C[C@@H]3C[C@H]43)n(-c3ccc(Cl)c4c(NS(C)(=O)=O)nn(CCN5[C@@H]6CC[C@H]5CC(F)(F)C6)c34)c(=O)c12 (atropisomer, axis not shown; (P))
// result > 50 nM

src = patent US12594276B2
